biological target: Glucose transporter (Leishmania mexicana); experiment: ST_JUDE_LEISH: Cytotoxicity at 2uM final concentration against transgenic Leishmania Mexicana promastigotes LmGT2 that are glucose transport deficient and complemented with the L. Mexicana glucose transporter 2. Activity is measured by DNA content using SYBR green in vitro; assay type: functional
Collected inhibition values appear next to each entry.
// unit must come after the numeric part

Compound	Result
CCNc1cc(C(=O)N[C@@H](Cc2ccccc2)[C@H](O)CNC2CCC(C)(C)CC2)cc(N2CCCCS2(=O)=O)c1	1.22%
Cc1ccc(Nc2ccnc(Nc3ccc4c(c3)CS(=O)(=O)C4)n2)cc1O	4.14%
COc1cc2nc(C)nc(Nc3cccc(Br)c3)c2cc1OC	-0.03%
Cc1ccccc1C1CCN(C2CCC(NC(=O)/C=C/c3cccc(Cl)c3F)CC2)CC1 (stereo not drawn)	1.85%
CCOc1cc(CC)ccc1C1CCN(CCCCNC(=O)c2ccc(NC(=O)c3ccc(Cl)cc3)cc2)CC1	4.97%

What the record says about Cc1cc(=NN=Cc2ccc(F)cc2)c2ccc(C(F)(F)F)cc2[nH]1 : inhibition is 1.74%

What the record says about CN1CCN(c2ccnc3ccc(NC(=O)Cc4ccc(OCc5ccccc5)cc4)cc23)CC1 : inhibition is 8.79%

What the record says about Oc1ccc(CCCNc2nc(NCc3cccc4ccccc34)nc(N3CCCNCC3)n2)cc1 : inhibition is 1.52%

---

target: Glucose transporter (Leishmania mexicana); assay: ST_JUDE_LEISH: Cytotoxicity at 2uM final concentration against transgenic Leishmania Mexicana promastigotes LmGT2 that are glucose transport deficient and complemented with the L. Mexicana glucose transporter 2. Activity is measured by DNA content using SYBR green in vitro; assay type: functional
Collected inhibition values appear next to each entry.
Give the quantity in %, number only.

Sample records with inhibition:
Molecule	Units text	inhibition
CC(C)c1cc2c(ccc3nc(N)nc(N)c32)[nH]1	%	8.49
O=C(c1ccc(-c2cccc(-c3nc4cc(F)ccc4[nH]3)c2)cc1)N1CCCCC1CN1CCC(O)C1 (stereo not given)	%	3.96
Cc1cccc(C(=O)Nc2ccnc(N(C)CCCN(C)Cc3cccc(C#N)c3)c2)c1	%	2.02
O=C(Nc1ccc(Cn2ncc(N3CCCNCC3)c(Cl)c2=O)cc1)Nc1cc(C(F)(F)F)cc(C(F)(F)F)c1	%	1.99

What the record says about COc1cc2c(cc1C(F)(F)F)N(C(=O)Nc1cccc(-c3ccc(CN(C)C)cc3)c1)CC2 : inhibition is 44

What the record says about CC(C)(c1ccccc1)c1ccc(O)c(CN2CCOCC2)c1 : inhibition is -0.41

What the record says about Fc1cc(Cl)ccc1Nc1ccnc2cc(-c3ccc(CN4CCCCC4)o3)ccc12 : inhibition is 0.77

What the record says about CS(=O)(=O)NCCCNCc1cccc(-c2ccc(-c3nc4cc(C(F)(F)F)ccc4[nH]3)cc2)c1 : inhibition is 0.95

What the record says about CN(C)CCOc1cccc(-c2cnc(N)c(-c3nc4cc(S(C)(=O)=O)ccc4[nH]3)c2)c1 : inhibition is 2.58

What the record says about COc1cc(N)cc2sc(N)nc12 : inhibition is 0.08

---

target: Solute carrier family 2, facilitated glucose transporter member 1 (Homo sapiens); assay: ST_JUDE_LEISH: Cytotoxicity at 2uM final concentration against transgenic Leishmania Mexicana promastigotes LmGLUT1 that are glucose transport deficient and complemented with the human glucose transporter GLUT1. Activity is measured by DNA content using SYBR green in vitro; type: functional
Collected inhibition values appear next to each entry.
Give the quantity in %, number only.

Sample records with inhibition:
Molecule	Target desc	inhibition (%)
COc1cc2c(cc1OC)CN(CCCCNC(=O)c1ccc(NC(=O)c3cc(Cl)cc(Cl)c3)cc1)CC2	Solute carrier family 2, facilitated glucose transporter member 1 (Homo sapiens)	2.09
NC1CCN(Cc2ccc(-c3ccc(-c4nc5ccccc5[nH]4)cc3)cc2)C1 (centres undefined)	Solute carrier family 2, facilitated glucose transporter member 1 (Homo sapiens)	12.9
O=C(Nc1ccc(Cl)cc1)Nc1cccc(-c2cccc(-c3nc4cc(F)ccc4[nH]3)c2)c1	Solute carrier family 2, facilitated glucose transporter member 1 (Homo sapiens)	7
Cc1ccc(C(=O)NC2C(=O)NC2c2ccccc2)c(C)c1 (centres undefined)	Solute carrier family 2, facilitated glucose transporter member 1 (Homo sapiens)	3.72
Cc1cc(NC(=O)CCCN2CCN(c3cccc(Cl)c3Cl)CC2)ccc1N1CCN(C(C)C)CC1	Solute carrier family 2, facilitated glucose transporter member 1 (Homo sapiens)	9.52
Cc1ccc(-n2c(=O)c3c(n4c(SC(C)C)nnc24)-c2ccccc2CC32CCCCC2)cc1	Solute carrier family 2, facilitated glucose transporter member 1 (Homo sapiens)	7.08

What the record says about COc1cc(C=CC(=O)N2CCC3(CC2)CC(=O)c2ccccc2O3)cc(OC)c1OC : inhibition is 1.6

What the record says about COc1ccc(N2CCN(c3nc(N)c4cc(OC)c(OC)cc4n3)CC2C)cc1 (centres undefined) : inhibition is 0.19

What the record says about CN(Cc1cnc2nc(N)nc(N)c2n1)c1ccc(C(=O)N[C@H](CCC(=O)OC(C)(C)C)C(=O)N[C@@H](CCC(=O)OC(C)(C)C)C(=O)OC(C)(C)C)cc1 : inhibition is 2.25
